Consider the following binders; for each one, report its glycan array binding signal (z-score).
Target: Fuc(a1-3)[Gal(b1-4)]GlcNAc(b1-6)[Gal(b1-3)GlcNAc(b1-3)]Gal(b1-4)Glc
Assay: glycan array binding signal (z-score within array); higher = stronger binding
Settings: glycan notation: IUPAC condensed, linker removed
The entries come from a sample that favours the strongest signals as a whole.
Give the value as a plain number.

Form field: reported glycan array binding signal (z-score) of BIp1-His (Cryptococcus neoformans) (protein) MFTKIFVALFAATAVLSAPVESAEKRITHTGRATFYSPSVGIGACGWQNTDEELVVALNAPQYALNADHNCGQSVRITNEQNGNQEIAKVVDLCPGCNDGDLDMSPALFGALNNNDFDQGVFPISWNFLPRDDTSSSN
-0.013

Could you tell me which glycan array binding signal (z-score) is on file for Pwp6 (Candida glabrata) (protein) MGSSHHHHHHSSGLVPRGSHMASANLPKLTNICQIPDNVKKTSGFKGEIRRIGLFPPGGDYTYLLKFPSTGSTASDTISLTTKPQLSTSGWFPSLFGHTYFIKADLLVYMVAYFVPTETGEYTFKLVNSDDAAVMYVGNPSAFPCGSIDTWPEPRKEDINVCDKISASTKLYMEKGLAYPVRLVWYNGGGDGQFNAQFIDPSGTTHTDWNGYVWQYDACTDCDYK ?
-0.265

Looking for the measured glycan array binding signal (z-score) of LF82 (Escherichia coli) (protein) ADWGPCRTASGDPFIFVTSFTKNIQNPTDNVTGQTYPDFYQWALGDKYSGVCECPSPNPTEARPTLYKTESTLAAGHNSTYFKITNNLEVSTRVYIANVGNVQVPFINKSNSQPGRECDQPTFGWTTGSKGQLSLYIAKPFVGEQNIPQTIIVSVFGTKKENVYSSVPISQVLLSGKVTVTQGCELAAGTSLDIDFGEYQAHDFKGRTGQPPQNVQKIQKELTFNCTNISDGVHIYLSLEGTPNAAYPSAISLGNADVGAVIEDGKGNILKPNDSNSLLEMNPGSLYEYVKRKVTTTITAYPVSTTGKLPAAGDYSGVATMHVELDGGGGGGGGGGATTDLGAKGTLKFSLKISQGHHHHHH , can you help?
-1.03

Item under review: Tp0751, 83732 (protein) MSYYHHHHHHLESTSLYKKAGFQHGHVPPRRIPPHDTFGALPTAALPSNARDTAAHPSDTADNTSGSSTTTDPRSHGNAPPAPVGGAAQTHTQPPVQTAMRIALWNRATHGEQGALQHLLAGLWIQTEISPNSGDIHPLLFFDREHAEITFSRASVQEIFLVDSAHTHRKTVSFLTRNTAISSIRRRLEVTFESHEVIHVRAVEDVARLKIGSTSMWDGQYTRYHAGPASAPSP . Reported glycan array binding signal (z-score)?
0.413

Given Epf (Streptococcus pyogenes) (protein) GDHGPEFNGVMVVKAAEAEELPDDLMNFKGTWEVSADGSSGRFFSKGATDSYVFHLIPAKDVKKPGWREHNEVKDSYIKIDKQSIAARYKTSTTAPYSVAFKVNTKSLIKDHDYKITFEQGQIASGITVDYRIGSAFNKTTDDSFKISDESKYASNVKIEGEEQGFKQREQGDKTISFRTLKEGPMSLVLLSKVEKKPQGDLDVEFKNLKIIDVTNPSQLDKGVAYVGNKNVQLTLKSDDGRTNFEGDEISLFNSRGELLQTVTVTKDQQNPISITLSEDQAKSLKNKEKLKVSIKQKQSKKTSKDFFFEVGIDPKVEAKQKEKLLELDKVKKQIEDSINGDAWLPEKPVDLQGDHGLSAWSHPQFEK , state its recorded glycan array binding signal (z-score).
-2.21

Field request: glycan array binding signal (z-score) | item: PNGase F (Flavobacterium meningosepticum) (protein) GIPAPADNTVNIKTFDKVKNAFGDGLSQSAEGTFTFPADVTAVKTIKMFIKNECPNKTCDEWDRYANVYVKNKTTGEWYEIGRFITPYWVGTEKLPRGLEIDVTDFKSLLSGNTELKIYTETWLAKGREYSVDFDIVYGTPDYKYSAVVPVVQYNKSSIDGVPYGKAHTLALKKNIQLPTNTEKAYLRTTISGWGHAKPYDAGSRGCAEWCFRTHTIAINNSNTFQHQLGALGCSANPINNQSPGNWTPDRAGWCPGMAVPTRIDVLNNSLIGSTFSYEYKFQNWTNNGTNGDAFYAISSFVIAKSNTPISAPVVTNLDPHHHHHH
-0.308
